# TEST_TARGET: binding of His-XIAP(BIR2)-avi fusion protein to GST-RIPK2 fusion protein (RIPK2/XIAP) (Homo sapiens)
# Construct: made in house; host or cells: baculovirus infected Sf9 cells
# Sequence (O43353 1-310 limits assumed): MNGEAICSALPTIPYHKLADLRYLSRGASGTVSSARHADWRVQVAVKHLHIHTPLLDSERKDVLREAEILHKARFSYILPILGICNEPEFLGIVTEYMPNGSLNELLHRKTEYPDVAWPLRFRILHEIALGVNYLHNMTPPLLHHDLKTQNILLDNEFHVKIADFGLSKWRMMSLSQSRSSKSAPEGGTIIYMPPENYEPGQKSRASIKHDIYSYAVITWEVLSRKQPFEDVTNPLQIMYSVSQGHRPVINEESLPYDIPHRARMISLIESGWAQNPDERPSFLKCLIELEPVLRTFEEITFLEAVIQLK
# ASSAY_METHOD_TEXT: RIPK2-XIAP binding competition PPI assay (TR-FRET)
# CONDITIONS: RIPK2/XIAP binding competition PPI assay; read-out: PPI IC50 bin
pIC50: −log10 of the molar value.
VALUE_TYPE: pIC50

Sample COc1cc2ncc(-c3cc(F)c(N)nc3F)n2cc1C1(O)CCOCC1 ; pIC50 observed: < 7.70

Record CC(C)(C)S(=O)(=O)c1cc2c(-c3cc(F)c(N)nc3F)cnn2cc1OCCOP(=O)(O)O , field pIC50: < 7.70

Given item CC(C)(C)S(=O)(=O)c1cn2c(-c3cc(F)c(N)nc3F)cnc2cc1NCCO , the value recorded as its pIC50 is 8.60 to 9.00

For this compound ( COc1cc2ncc(-c3ccc4nc(N)n(C)c4c3)n2cc1S(=O)(=O)C(C)(C)C ), measured pIC50 is < 7.70
